Give normalized growth for every item shown.
Experiment: chemical genetic growth profiling, strain panel (AID 1159580);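 further: tested at 20 µM; growth read once vehicle control cultures reached saturation at 30 °C; 1 = growth at the plate median or of vehicle wells; lower values mean less growth of the strain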
Settings: S. cerevisiae deletion strains, growth OD, locus YLR320W, strain mms22, hits give low values
Among all 5,500 compounds or so, about 2,000 (36%) were called active. Another 18% or so got no clear call; they are omitted. The list shows a part of the results.
Simply state the number, no unit and no words.

According to the records, this compound `COc1ccc(C(=O)c2ccccc2)c(O)c1` displays normalized growth of 0.542

The measured normalized growth associated with `CCCCCCCCCCCCC[N+](C)(C)Cc1ccccc1` reads 0.0747

Lab note: measured normalized growth of CC(=O)OC1CC23CC24CCC(OC2OCC(O)C(O)C2O)C(C)(C)C4CCC3C2(C)CC3OC4(CC(C)C3C12C)OC(O)C1(C)OC41 (stereo not drawn) was 1.04

Documented normalized growth of `OCCN(CCO)c1nc(N2CCCCC2)c2nc(N(CCO)CCO)nc(N3CCCCC3)c2n1` : 1.04

GET /value?item= CCCCCC(C)N (stereo not drawn) &field=normalized growth returns 1.04

normalized growth recorded for this compound, CC1(C)C2CC[C@]3(C)C(C(=O)C=C4[C@@H]5C[C@@](C)(C(=O)O)CC[C@]5(C)CC[C@]43C)[C@@]2(C)CC[C@@H]1OC(=O)CCC(=O)O (stereo partly drawn) , is 0.999

`NC(=O)N1c2ccccc2CC(=O)c2ccccc21` has a reported normalized growth of 0.945

Lab note: measured normalized growth of CCC1(c2ccc(N)cc2)CCC(=O)NC1=O (stereo not drawn) was 0.978

Notebook: CC1(C)C2CC[C@]3(C)C(C(=O)C=C4[C@H]5C[C@@](C)(C(=O)O)CC[C@]5(C)CC[C@]43C)[C@@]2(C)CC[C@@H]1O (stereo partly drawn) , normalized growth read as 0.871

The compound identified as `COc1c2c(c(CC=C(C)C)c3oc(=O)c(-c4ccc(O)cc4)c(O)c13)OC(C)(C)C=C2` registered its normalized growth at 0.65

Data point: `CCC1(c2ccccc2)C(=O)NCNC1=O` ; normalized growth = 1.02

# normalized growth (compound: `C=CC1=C(C(=O)O)N2C(=O)[C@@H](NC(=O)/C(=N/O)c3csc(N)n3)[C@H]2SC1` ) is 1.02

GET /value?item= CCC1(C)CC(=O)NC1=O (stereo not drawn) &field=normalized growth returns 0.978

So, `O=c1ccc2ccccc2o1` ? Its normalized growth was 0.951

Reported normalized growth for CC(=O)O[C@H]1C(=O)[C@@]2(C)C([C@H](OC(=O)c3ccccc3)[C@]3(O)C[C@H](O)C(C)=C1C3(C)C)[C@]1(OC(C)=O)CO[C@@H]1C[C@@H]2O (stereo partly drawn) was 1.01

Reported normalized growth for CC(C)(CO)C(O)C(=O)NCCCO (stereo not drawn) was 1.02

Quick note, normalized growth for CC1(C)C2CC[C@]3(C)C(C(=O)C=C4[C@@H]5C[C@@](C)(C(=O)O)CC[C@]5(C)CC[C@]43C)[C@@]2(C)CC[C@@H]1O (stereo partly drawn) landed at 0.941

`N=c1nc(N2CCCCC2)cc(N)n1O` yielded normalized growth of 0.96

Sure, the documented normalized growth for OCC(O)Cc1ccc2c(c1)OCO2 (stereo not drawn) is 0.983

The recorded normalized growth for entry CN1C2CC3C[C@H]1C(O3)C2O (stereo partly drawn) equals 1.02

// `C[C@@H](N)CO` : normalized growth value = 1.01

Documented normalized growth of `CCCCOc1ccc(CC(=O)NO)cc1` : 0.958

Record `O=C(O)COc1cc(Cl)c(Cl)cc1Cl` , field normalized growth: 0.994
